- measurement-notes: xn = mol fraction of the nth substance listed, in the solute-free solvent
- condition-notes: 323.15 K; x2 = 0.8
test-readout: solubility (g/100 g solution)
Answer with a number only.

Please review the following examples before continuing.
>  <compound>
O=C(O)c1ccc(C(=O)O)o1 + O + COCCOC

>  <test-readout>
solubility (g/100 g solution)

>  <assay-value>
5.55

$$$$
>  <compound>
O=C(O)c1ccc(C(=O)O)o1 + O + COCCOCCOC

>  <test-readout>
solubility (g/100 g solution)

>  <assay-value>
6.59

$$$$
>  <compound>
CCCCOc1ccc(C(=O)CCN2CCCCC2)cc1.Cl + CCO + O

>  <test-readout>
solubility (g/100 g solution)

>  <assay-value>
60.6

$$$$

Return reported solubility (g/100 g solution); argument: O=C(O)C1CSCN1 (stereo unspecified) + O + CC#N
2.62

Return reported solubility (g/100 g solution); argument: CC(=O)OC(c1ccccc1)C(Cl)(Cl)Cl (stereo unspecified) + CC(=O)O + O
25.6

Return reported solubility (g/100 g solution); argument: CCCCOc1ccc(C(=O)CCN2CCCCC2)cc1.Cl + CCO + CCOC(C)=O
51

* * *

- measurement-notes: xn = mol fraction of the nth substance listed, in the solute-free solvent
- condition-notes: 298.15 K; x2 = 0.5
test-readout: solubility (g/100 g solution)

>  <molecule>
CCCCOc1ccc(C(=O)CCN2CCCCC2)cc1.Cl + CCO + CCCCCC

>  <assay-value>
20.5

$$$$
>  <molecule>
O=C1CCc2ccc(OCCCCN3CCN(c4cccc(Cl)c4Cl)CC3)cc2N1 + CCC(C)=O + CCOC(C)=O

>  <assay-value>
1.75

$$$$
>  <molecule>
O=C1CCc2ccc(OCCCCN3CCN(c4cccc(Cl)c4Cl)CC3)cc2N1 + CCC(C)=O + CC(C)=O

>  <assay-value>
2.28

$$$$
>  <molecule>
CC(=O)OC(c1ccccc1)C(Cl)(Cl)Cl (stereo not given) + CCO + O

>  <assay-value>
1.1

$$$$

Return reported solubility (g/100 g solution); argument: O=C(O)c1ccc(C(=O)O)o1 + C1CCOC1 + O
6.95

* * *

- measurement-notes: xn = mol fraction of the nth substance listed, in the solute-free solvent
- condition-notes: 293.15 K; x2 = 0.2
Decision: solubility (g/100 g solution) >= 4 yields t, all other cases yield f.

>  <molecule>
CCCCOc1ccc(C(=O)CCN2CCCCC2)cc1.Cl + CCO + CCCCCC

>  <category-label>
t

$$$$
>  <molecule>
O=C(O)C1CSCN1 (configuration not stated) + O + CC#N

>  <category-label>
f

$$$$
>  <molecule>
O=C1CCc2ccc(OCCCCN3CCN(c4cccc(Cl)c4Cl)CC3)cc2N1 + CCC(C)=O + CCOC(C)=O

>  <category-label>
f

$$$$
>  <molecule>
CCCCOc1ccc(C(=O)CCN2CCCCC2)cc1.Cl + CO + C1CCOC1

>  <category-label>
t

$$$$
>  <molecule>
O=C(O)c1ccc(C(=O)O)o1 + C1CCOC1 + O

>  <category-label>
f

$$$$
>  <molecule>
COC1=CC(=O)CC(C)C12Oc1c(Cl)c(OC)cc(OC)c1C2=O (configuration not stated) + CC(=O)CC(C)C + CC(C)O

>  <category-label>
f

$$$$
>  <molecule>
O=C1CCc2ccc(OCCCCN3CCN(c4cccc(Cl)c4Cl)CC3)cc2N1 + CCC(C)=O + CC(C)=O

>  <category-label>
f

$$$$
>  <molecule>
COC1=CC(=O)CC(C)C12Oc1c(Cl)c(OC)cc(OC)c1C2=O (configuration not stated) + CCC(C)=O + CC(C)O

>  <category-label>
f

$$$$

Given CCCCOc1ccc(C(=O)CCN2CCCCC2)cc1.Cl + CCO + CCOC(C)=O , state whether its solubility (g/100 g solution) is at least 4.
t

Given CCCCOc1ccc(C(=O)CCN2CCCCC2)cc1.Cl + CCO + O , state whether its solubility (g/100 g solution) is at least 4.
t

Given COC1=CC(=O)CC(C)C12Oc1c(Cl)c(OC)cc(OC)c1C2=O (configuration not stated) + CC(C)=O + CC(C)O , state whether its solubility (g/100 g solution) is at least 4.
f

Given O=C1CCc2ccc(OCCCCN3CCN(c4cccc(Cl)c4Cl)CC3)cc2N1 + CCC(C)=O + CCCO , state whether its solubility (g/100 g solution) is at least 4.
f

* * *

Listed here: items and their measured solubility (g/100 g solution).
- measurement-notes: xn = mol fraction of the nth substance listed, in the solute-free solvent
- condition-notes: 298.15 K; x2 = 0.4
Answer with a number only.

>  <molecule>
O=C1CCc2ccc(OCCCCN3CCN(c4cccc(Cl)c4Cl)CC3)cc2N1 + CCC(C)=O + CC(C)=O

>  <solubility (g/100 g solution)>
2.19

$$$$
>  <molecule>
CC(=O)OC(c1ccccc1)C(Cl)(Cl)Cl (centres undefined) + CC(C)O + O

>  <solubility (g/100 g solution)>
1.66

$$$$
>  <molecule>
O=C(O)c1ccc(C(=O)O)o1 + C1CCOC1 + O

>  <solubility (g/100 g solution)>
6.62

$$$$

Return reported solubility (g/100 g solution); argument: COC1=CC(=O)CC(C)C12Oc1c(Cl)c(OC)cc(OC)c1C2=O (centres undefined) + CCC(C)=O + CC(C)O
1.11

Return reported solubility (g/100 g solution); argument: CCCCOc1ccc(C(=O)CCN2CCCCC2)cc1.Cl + CCO + CCCCCC
16.2

Return reported solubility (g/100 g solution); argument: COC1=CC(=O)CC(C)C12Oc1c(Cl)c(OC)cc(OC)c1C2=O (centres undefined) + CC(=O)CC(C)C + CC(C)O
0.73

Return reported solubility (g/100 g solution); argument: CC(=O)OC(c1ccccc1)C(Cl)(Cl)Cl (centres undefined) + CC(=O)O + O
0.495

Return reported solubility (g/100 g solution); argument: CC(=O)OC(c1ccccc1)C(Cl)(Cl)Cl (centres undefined) + CCO + O
0.787

Return reported solubility (g/100 g solution); argument: COC1=CC(=O)CC(C)C12Oc1c(Cl)c(OC)cc(OC)c1C2=O (centres undefined) + CC(C)=O + CC(C)O
1.23

* * *

- measurement-notes: xn = mol fraction of the nth substance listed, in the solute-free solvent
- condition-notes: 323.15 K; x2 = 0.5
test-readout: solubility (g/100 g solution)
Answer with a number only.

Please review the following examples before continuing.
>  <compound>
CC(=O)OC(c1ccccc1)C(Cl)(Cl)Cl (stereo not given) + CCO + O

>  <assay-value>
6.17

$$$$
>  <compound>
CCCCOc1ccc(C(=O)CCN2CCCCC2)cc1.Cl + CCO + O

>  <assay-value>
62

$$$$
>  <compound>
O=C(O)C1CSCN1 (stereo not given) + O + CC#N

>  <assay-value>
0.492

$$$$
>  <compound>
CCCCOc1ccc(C(=O)CCN2CCCCC2)cc1.Cl + CCO + CCCCCC

>  <assay-value>
32.6

$$$$
>  <compound>
CC(=O)OC(c1ccccc1)C(Cl)(Cl)Cl (stereo not given) + CC(C)O + O

>  <assay-value>
11.3

$$$$
>  <compound>
O=C(O)c1ccc(C(=O)O)o1 + O + COCCOCCOC

>  <assay-value>
6.03

$$$$
>  <compound>
COC1=CC(=O)CC(C)C12Oc1c(Cl)c(OC)cc(OC)c1C2=O (stereo not given) + CCC(C)=O + CC(C)O

>  <assay-value>
2.79

$$$$
>  <compound>
CCCCOc1ccc(C(=O)CCN2CCCCC2)cc1.Cl + CCO + CCOC(C)=O

>  <assay-value>
37

$$$$

Return reported solubility (g/100 g solution); argument: CCCCOc1ccc(C(=O)CCN2CCCCC2)cc1.Cl + CO + C1CCOC1
46.2

Return reported solubility (g/100 g solution); argument: COC1=CC(=O)CC(C)C12Oc1c(Cl)c(OC)cc(OC)c1C2=O (stereo not given) + CC(C)=O + CC(C)O
3.19

* * *

- measurement-notes: xn = mol fraction of the nth substance listed, in the solute-free solvent
- condition-notes: 313.15 K; x2 = 0.2
Decision: solubility (g/100 g solution) >= 4 yields 1, all other cases yield -1.

Some solved entries appear below for comparison.
>  <compound>
CCCCOc1ccc(C(=O)CCN2CCCCC2)cc1.Cl + CO + C1CCOC1

>  <category-label>
1

$$$$
>  <compound>
O=C(O)c1ccc(C(=O)O)o1 + C1CCOC1 + O

>  <category-label>
1

$$$$
>  <compound>
CCCCOc1ccc(C(=O)CCN2CCCCC2)cc1.Cl + CCO + CCOC(C)=O

>  <category-label>
1

$$$$
>  <compound>
COC1=CC(=O)CC(C)C12Oc1c(Cl)c(OC)cc(OC)c1C2=O (stereo not given) + CC(C)=O + CC(C)O

>  <category-label>
-1

$$$$
>  <compound>
CCCCOc1ccc(C(=O)CCN2CCCCC2)cc1.Cl + CCO + CCCCCC

>  <category-label>
1

$$$$
>  <compound>
O=C1CCc2ccc(OCCCCN3CCN(c4cccc(Cl)c4Cl)CC3)cc2N1 + CCC(C)=O + CCCO

>  <category-label>
-1

$$$$
>  <compound>
O=C1CCc2ccc(OCCCCN3CCN(c4cccc(Cl)c4Cl)CC3)cc2N1 + CCC(C)=O + CC(C)=O

>  <category-label>
-1

$$$$
>  <compound>
O=C(O)c1ccc(C(=O)O)o1 + O + COCCOCCOC

>  <category-label>
-1

$$$$
>  <compound>
COC1=CC(=O)CC(C)C12Oc1c(Cl)c(OC)cc(OC)c1C2=O (stereo not given) + CCC(C)=O + CC(C)O

>  <category-label>
-1

$$$$

Let's switch to this compound now.
Given O=C(O)c1ccc(C(=O)O)o1 + C1COCCO1 + O , state whether its solubility (g/100 g solution) is at least 4.
-1
